Recorded pKd for the following binders
Biological target: T1, Mcl-1 (biotinylated pro-survival Bcl-2 family protein) (UniProt Q07820 171-327, limits assumed, biotinylated (co-expressed E. coli biotin ligase BirA))
T1 construct: In the functional rows the target is the endogenous Mcl-1 of the human cancer cell lines
T1 sequence (Q07820 171-327 limits assumed): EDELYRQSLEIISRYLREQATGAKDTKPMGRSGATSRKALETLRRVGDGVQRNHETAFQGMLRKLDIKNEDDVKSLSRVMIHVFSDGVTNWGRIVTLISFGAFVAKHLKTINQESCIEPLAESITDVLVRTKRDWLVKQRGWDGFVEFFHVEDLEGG
Test: flow cytometry of E. coli displaying the peptide on eCPX, biotinylated target + streptavidin-PE; apparent Kd
Protocol: All binding assays were performed using MC1061 strain. Briefly, a 5 mL culture of a library sample or individual variant was grown to OD₆₀₀˜0.6, and induced with arabinose (0.2%) at RT for 2.5 hours. Cells were pelleted (1 mL culture, 6000 rpm, 5 min) and resuspended in 1 mL PBS. A portion of the cell suspension (50 μL) was mixed with the desired concentration of pro-survival protein to a total volume of 500 μL. […]
pKd: −log10 of the molar value. Where no end group is shown, it is not given here. eCPX = enhanced circularly permuted OmpX display scaffold; linker = not defined here

{"Binder": "WVAQLLRRIGDEVN-{linker-eCPX} (reading uncertain; also: printed as Trp-Val-Ala-Gln-Leu-Leu-Arg-Arg-Ile-Gly-Asp-Glu-Val-Asn, Clone selected against Mcl-1; not shown: eCPX display scaffold and its linker, fused C-terminal to the peptide) [Bim BH3 14-mer variant M2-2 displayed on eCPX]", "pKd": 8.24}
{"Binder": "WIAQELRRIGDEFN-{linker-eCPX} (reading uncertain, also called WT; Bim WT; not shown: eCPX (enhanced circularly permuted OmpX) display scaffold and its linker, fused C-terminal to the peptide) [wild-type Bim BH3 14-mer peptide (residues 147-160) displayed on eCPX]", "pKd": 7.42}
{"Binder": "WIAQLLRRIGDEVN-{linker-eCPX} (reading uncertain; also: printed as Trp-Ile-Ala-Gln-Leu-Leu-Arg-Arg-Ile-Gly-Asp-Glu-Val-Asn, Clone selected against Mcl-1; not shown: eCPX display scaffold and its linker, fused C-terminal to the peptide) [Bim BH3 14-mer variant M2-1 displayed on eCPX]", "pKd": 7.99}

Taken from patent US20150045310A1.
